Value source: patent US20170362324A1

Study target: T1, human soluble αvβ5 protein (extracellular domains of human αv and β5 integrin subunits) (human, UniProt P06756 31-992; P18084 24-719)
T1 construct: also called biotin-αvβ5; hsαvβ5
T1 sequence (P06756 31-992 limits assumed, chain 1 of 2): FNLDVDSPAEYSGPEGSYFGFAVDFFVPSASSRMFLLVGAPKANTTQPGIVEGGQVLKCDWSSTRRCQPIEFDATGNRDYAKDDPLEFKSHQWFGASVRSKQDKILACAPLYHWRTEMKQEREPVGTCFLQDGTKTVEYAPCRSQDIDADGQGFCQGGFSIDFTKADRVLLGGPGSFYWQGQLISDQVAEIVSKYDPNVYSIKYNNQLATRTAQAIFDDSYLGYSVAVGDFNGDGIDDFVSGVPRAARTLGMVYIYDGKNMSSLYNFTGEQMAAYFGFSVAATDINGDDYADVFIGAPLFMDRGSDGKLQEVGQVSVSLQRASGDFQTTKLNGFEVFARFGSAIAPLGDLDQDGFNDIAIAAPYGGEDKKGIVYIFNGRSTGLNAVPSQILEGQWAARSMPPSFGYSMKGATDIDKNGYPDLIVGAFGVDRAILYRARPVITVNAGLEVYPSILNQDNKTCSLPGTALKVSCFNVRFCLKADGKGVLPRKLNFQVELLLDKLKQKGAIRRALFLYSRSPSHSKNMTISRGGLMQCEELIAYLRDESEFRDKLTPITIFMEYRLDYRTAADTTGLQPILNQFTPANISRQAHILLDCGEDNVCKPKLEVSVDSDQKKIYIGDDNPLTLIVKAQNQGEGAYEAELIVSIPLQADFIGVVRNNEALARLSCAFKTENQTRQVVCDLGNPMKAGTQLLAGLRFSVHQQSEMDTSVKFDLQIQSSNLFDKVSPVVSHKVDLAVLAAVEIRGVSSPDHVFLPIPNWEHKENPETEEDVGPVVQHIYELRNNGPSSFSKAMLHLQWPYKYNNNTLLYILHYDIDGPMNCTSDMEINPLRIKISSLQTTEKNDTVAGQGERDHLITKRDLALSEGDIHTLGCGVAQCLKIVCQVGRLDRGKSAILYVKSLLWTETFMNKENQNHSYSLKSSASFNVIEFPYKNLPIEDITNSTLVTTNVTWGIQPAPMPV
T1 sequence (P18084 24-719 limits assumed, chain 2 of 2): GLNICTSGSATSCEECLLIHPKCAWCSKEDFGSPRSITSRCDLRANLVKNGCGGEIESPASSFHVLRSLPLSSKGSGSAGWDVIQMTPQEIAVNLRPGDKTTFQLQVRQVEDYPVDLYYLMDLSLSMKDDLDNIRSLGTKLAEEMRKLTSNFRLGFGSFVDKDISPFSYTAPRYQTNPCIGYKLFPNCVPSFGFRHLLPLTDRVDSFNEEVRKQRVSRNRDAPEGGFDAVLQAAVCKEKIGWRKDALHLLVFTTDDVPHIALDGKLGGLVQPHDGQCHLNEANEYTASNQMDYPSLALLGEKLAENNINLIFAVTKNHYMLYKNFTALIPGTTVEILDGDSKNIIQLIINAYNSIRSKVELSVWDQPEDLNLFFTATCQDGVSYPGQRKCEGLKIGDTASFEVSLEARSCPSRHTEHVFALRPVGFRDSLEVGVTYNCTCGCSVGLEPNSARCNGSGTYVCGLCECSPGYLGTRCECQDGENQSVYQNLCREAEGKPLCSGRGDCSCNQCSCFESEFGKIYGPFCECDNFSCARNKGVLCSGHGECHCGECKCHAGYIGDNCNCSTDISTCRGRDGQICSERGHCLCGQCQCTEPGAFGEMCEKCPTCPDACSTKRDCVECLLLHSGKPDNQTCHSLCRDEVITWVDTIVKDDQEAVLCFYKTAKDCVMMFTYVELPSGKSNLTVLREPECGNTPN
Assay method text: αvβ5-vitronectin blocking ELISA
Description: Vitronectin Inhibition ELISA: 96-well microtiter plates were coated with 5 μg/ml purified human plasma vitronectin diluted in PBS (50 μl/well) at 4° C. overnight. After the coating solution was removed, the plates were blocked with 300 μl/well of 1% BSA/TBS at 25° C. for 1 hr. […] Bound protein was detected using the TMB substrate and indicated by the absorbency measured at 450 nm. […]
// Fold chg. (IC50 against mouse chimeric ALULA) lookup, one value per entry
Write the number in fold without appending the unit.

Example entries and their recorded answers appear below.
* VH4/VL0 Agly-IgG4.P (S228P)/IgG1 (N297Q) (antibody, V domains shown, also called VH4/VL0 (Agly-IgG4P/G1); H4/L0) VH: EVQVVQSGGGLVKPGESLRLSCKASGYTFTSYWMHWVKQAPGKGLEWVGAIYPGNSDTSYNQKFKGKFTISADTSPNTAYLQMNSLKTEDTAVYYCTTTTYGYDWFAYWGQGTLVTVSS VL: DIQMTQSPSSVSASVGDRVTITCKSSQSVLYSSNQKNYLAWYQQKPGKAPKLLIYWASTRESGVPSRFSGSGSGTDFTLTISSLQPEDFATYYCHQYLSSLTFGQGTKVEIKR | 1
* VH5/VL2 Agly-IgG4.P (S228P)/IgG1 (N297Q) (antibody, V domains shown, also called VH5/VL2 (Agly-IgG4P/G1); H5/L2) VH: EVQVQQSGGGLVKPGGSLRLSCKASGYTFTSYWMHWVKQAPGKGLEWVGAIYPGNSDTSYNQKFKGKATLSAVTSPNTAYLQMNSLKTEDTAVYYCTTTTYGYDWFAYWGQGTLVTVSS VL: NIQMTQSPSSLSASVGDRVTMSCKSSQSVLYSSNQKNYLAWYQQKPGKSPKLLIYWASTRESGVPDRFTGSGSGTDFTLTISSLQPEDFATYYCHQYLSSLTFGQGTKLEIKR | 0.8
* ALULA-H4/L2-IgG4.P(S228P)/IgG1(N297Q) (antibody, V domains shown, Hybrid aglycosylated IgG4.P (S228P)/IgG1 (N297Q) heavy chain, human kappa light chain; also called VH4/VL2 (Agly-IgG4P/G1); H4/L2 antibody) VH: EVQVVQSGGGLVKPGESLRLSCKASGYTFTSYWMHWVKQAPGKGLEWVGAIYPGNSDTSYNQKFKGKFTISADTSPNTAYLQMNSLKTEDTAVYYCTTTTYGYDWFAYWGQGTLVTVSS VL: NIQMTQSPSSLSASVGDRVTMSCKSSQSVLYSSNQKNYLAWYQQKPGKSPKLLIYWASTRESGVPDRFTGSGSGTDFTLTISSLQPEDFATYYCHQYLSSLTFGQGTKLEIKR | 0.7

Now consider the entry below.
Problem: Query Fold chg. (IC50 against mouse chimeric ALULA) for VH2/VL2 Agly-IgG4.P (S228P)/IgG1 (N297Q) (antibody, V domains shown, also called VH2/VL2 (Agly-IgG4P/G1); H2/L2) VH: EVQVVQSGGGLVKPGESLRLSCAASGYTFTSYWMHWVKQAPGKGLEWVGAIYPGNSDTSYNQKFKGKFTISADTSSNTAYLQMNSLKTEDTAVYYCTTTTYGYDWFAYWGQGTLVTVSS VL: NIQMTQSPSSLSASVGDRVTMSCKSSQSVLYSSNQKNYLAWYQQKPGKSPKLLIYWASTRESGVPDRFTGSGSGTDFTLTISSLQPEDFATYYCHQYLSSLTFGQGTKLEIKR
Solution: 1.1
